test system: lactase phlorizin hydrolase; assay: co-perfusion with LPH inhibitor gluconolactone in perfused rat intestinal model: inhibition of hydrolysis; type: in vivo; details: 10 μM flavonoid co-perfused with gluconolactone (40μM), ileum
observable: hydrolysis inhibition rate, ileum (%)

molecule="COc1ccc(-c2oc3c(CC=C(C)C)c(OC4OC(CO)C(O)C(O)C4O)cc(O)c3c(=O)c2OC2OC(C)C(O)C(O)C2OC2OC(C)C(O)C(O)C2O)cc1 (stereo not shown) [epimedin C]" unitabbrev=% datavalue=52

a. COc1ccc(-c2oc3c(CC=C(C)C)c(OC4OC(CO)C(O)C(O)C4O)cc(O)c3c(=O)c2OC2OC(C)C(O)C(O)C2OC2OC(CO)C(O)C(O)C2O)cc1 (stereo not shown) [epimedin A]
b. COc1ccc(-c2oc3c(CC=C(C)C)c(O[C@@H]4O[C@H](CO)[C@@H](O)[C@H](O)[C@H]4O)cc(O)c3c(=O)c2O[C@@H]2O[C@@H](C)[C@H](O)[C@@H](O)[C@H]2O)cc1
c. COc1ccc(-c2oc3c(CC=C(C)C)c(OC4OC(CO)C(O)C(O)C4O)cc(O)c3c(=O)c2OC2OC(C)C(O)C(O)C2OC2OCC(O)C(O)C2O)cc1 (stereo not shown) [epimedin B]
IN: // sort entries: hydrolysis inhibition rate, ileum, high to low Answer format: the labels, in the requested order.
OUT: c, b, a

Source: paper PMC6259646
